# TARGET: Histamine H3 receptor (Rattus norvegicus, UniProt Q9QYN8)
# Sequence (Q9QYN8 whole entry): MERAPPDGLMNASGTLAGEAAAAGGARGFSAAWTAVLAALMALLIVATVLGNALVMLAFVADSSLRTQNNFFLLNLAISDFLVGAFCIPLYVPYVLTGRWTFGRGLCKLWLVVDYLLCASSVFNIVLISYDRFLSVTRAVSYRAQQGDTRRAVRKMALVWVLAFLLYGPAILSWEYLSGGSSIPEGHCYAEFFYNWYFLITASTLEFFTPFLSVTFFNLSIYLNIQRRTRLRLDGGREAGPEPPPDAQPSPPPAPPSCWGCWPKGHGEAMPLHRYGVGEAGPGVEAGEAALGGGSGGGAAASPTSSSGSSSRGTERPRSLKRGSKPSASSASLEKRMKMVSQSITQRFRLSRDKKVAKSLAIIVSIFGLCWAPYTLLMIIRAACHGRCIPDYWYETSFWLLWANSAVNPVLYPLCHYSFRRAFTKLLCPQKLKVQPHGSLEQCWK
# PROTOCOL TEXT: In vitro antagonistic activity tested against Histamine H3 receptor on synaptosomes from rat cerebral cortex
# Type: functional, subcellular, Brain
MEASUREMENT KIND: log10(Ki) (log10 of the value in nM)
# values: log10(Ki), units nM

query: Data request, read-out log10(Ki), for `Cc1ccc(C(=O)OCCCc2cnc[nH]2)cc1I`
result: 1.48

query: Data request, read-out log10(Ki), for `O=C(OCCCc1cnc[nH]1)c1ccc(I)cc1`
result: 1.30

query: Data request, read-out log10(Ki), for `Ic1ccc(OCCCc2cnc[nH]2)cc1`
result: 1.34

query: Data request, read-out log10(Ki), for `Nc1c(I)cc(C(=O)OCCCc2cnc[nH]2)cc1I`
result: 2.16

query: Data request, read-out log10(Ki), for `O=C(NCc1ccc(I)cc1)OCCCc1c[nH]cn1`
result: 1.08

query: Data request, read-out log10(Ki), for `Ic1cccc(COCCCc2c[nH]cn2)c1`
result: 0.85

---

# TARGET: Histamine H3 receptor (Rattus norvegicus)
# PROTOCOL TEXT: In vitro antagonistic activity tested against Histamine H3 receptor on synaptosomes from rat cerebral cortex
# Format: functional, subcellular, Brain
Response field label takes true (1) when Ki is strictly below 20 nM and false (0) in all other cases.

query: Is the reported Ki for `O=C(OCCCc1c[nH]cn1)c1cccc(I)c1` strictly below 20 nM?
result: false (0)

query: Is the reported Ki for `COc1ccc(CCC(=O)OCCCc2cnc[nH]2)cc1I` strictly below 20 nM?
result: false (0)

query: Is the reported Ki for `O=C(OCCCc1cnc[nH]1)c1ccccc1I` strictly below 20 nM?
result: false (0)

query: Is the reported Ki for `O=C(Nc1ccccc1I)OCCCc1cnc[nH]1` strictly below 20 nM?
result: false (0)

query: Is the reported Ki for `Ic1cccc(OCCCc2cnc[nH]2)c1` strictly below 20 nM?
result: true (1)

query: Is the reported Ki for `O=C(CCCc1ccc(I)cc1)OCCCc1cnc[nH]1` strictly below 20 nM?
result: false (0)

query: Is the reported Ki for `O=C(Cc1ccc(I)cc1)OCCCc1cnc[nH]1` strictly below 20 nM?
result: true (1)

query: Is the reported Ki for `O=C(Nc1cccc(I)c1)OCCCc1cnc[nH]1` strictly below 20 nM?
result: true (1)

query: Is the reported Ki for `Ic1ccc(COCCCc2c[nH]cn2)cc1` strictly below 20 nM?
result: true (1)

query: Is the reported Ki for `O=C(CCc1ccc(I)cc1)OCCCc1c[nH]cn1` strictly below 20 nM?
result: false (0)

query: Is the reported Ki for `Brc1ccc(COCCCc2c[nH]cn2)cc1` strictly below 20 nM?
result: true (1)

---

# TARGET: UniProt:P47747
# Sequence (P47747 whole entry): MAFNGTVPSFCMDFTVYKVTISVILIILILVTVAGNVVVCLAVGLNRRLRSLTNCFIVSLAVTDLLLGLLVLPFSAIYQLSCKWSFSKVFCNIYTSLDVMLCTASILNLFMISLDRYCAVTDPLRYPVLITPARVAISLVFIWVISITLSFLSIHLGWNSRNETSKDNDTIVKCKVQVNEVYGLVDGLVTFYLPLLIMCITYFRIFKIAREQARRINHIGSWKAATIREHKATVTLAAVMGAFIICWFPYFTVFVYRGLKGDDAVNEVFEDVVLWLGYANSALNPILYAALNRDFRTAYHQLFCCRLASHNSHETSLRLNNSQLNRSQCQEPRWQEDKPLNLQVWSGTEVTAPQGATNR
# PROTOCOL TEXT: […] activity tested against histamine H2 receptor on guinea pig atrium
# Assay type: functional, tissue-based
# TEST CONTEXT: Cardiac atrium
Assign -Log KB to each entry below.
Returns: the value as a bare number; no unit string appended.

query: Data request, read-out -Log KB, for `COc1ccc(CCC(=O)OCCCc2c[nH]cn2)cc1I`
result: 4.5

query: Data request, read-out -Log KB, for `Cc1ccc(C(=O)OCCCc2c[nH]cn2)cc1I`
result: 4.2

query: Data request, read-out -Log KB, for `O=C(OCCCc1c[nH]cn1)c1ccc(I)cc1`
result: 4.5

query: Data request, read-out -Log KB, for `O=C(CCc1ccc(I)cc1)OCCCc1c[nH]cn1`
result: 3.6

query: Data request, read-out -Log KB, for `Ic1ccc(OCCCc2c[nH]cn2)cc1`
result: 5.2

query: Data request, read-out -Log KB, for `Ic1cccc(OCCCc2c[nH]cn2)c1`
result: 5.6

query: Data request, read-out -Log KB, for `Ic1ccc(COCCCc2c[nH]cn2)cc1`
result: 5.2

query: Data request, read-out -Log KB, for `O=C(Nc1cccc(I)c1)OCCCc1c[nH]cn1`
result: 5.3
